Data credit: patent US6818651B2

- target.of.assay: recombinant PDE7A1 (Homo sapiens)
- Construct: made in house; host or cells: SF21 insect cells (baculovirus; virus made in SF9)
- Sequence (Q13946 whole entry): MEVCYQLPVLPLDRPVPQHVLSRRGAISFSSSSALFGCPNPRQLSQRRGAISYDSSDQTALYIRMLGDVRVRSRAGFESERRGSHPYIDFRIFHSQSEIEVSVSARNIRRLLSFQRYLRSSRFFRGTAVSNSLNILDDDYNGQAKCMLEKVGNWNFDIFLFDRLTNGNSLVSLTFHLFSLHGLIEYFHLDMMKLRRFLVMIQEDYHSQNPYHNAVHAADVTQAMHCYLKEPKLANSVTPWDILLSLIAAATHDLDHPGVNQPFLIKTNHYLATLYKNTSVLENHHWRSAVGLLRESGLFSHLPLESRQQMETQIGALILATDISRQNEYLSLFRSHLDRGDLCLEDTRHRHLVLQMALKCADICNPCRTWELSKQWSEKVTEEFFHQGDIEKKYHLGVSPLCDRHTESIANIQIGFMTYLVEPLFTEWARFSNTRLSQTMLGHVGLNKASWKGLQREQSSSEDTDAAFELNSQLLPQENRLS
- protocol.notes: Inhibition of PDE7 activity, modified SPA (scintillation proximity assay) test
- Type: biochemical
- measurement.parameters: recombinant PDE7A1 (1000×g supernatant of SF21 cells), 0.5 μM cAMP, [3H]cAMP SPA, 37° C.; read-out: −log IC50 (inhibition of PDE7 activity) (converted)
experimental.readout: IC50 (nM)

The following molecules have reported results that may help.
# substance.smiles, experimental.readout, unit.symbol, observed
rows = [
    ("O=S(=O)(Nc1ccc(C2=NCCc3ccc(Cl)cc32)cc1)c1cc(Br)c(Cl)s1", "IC50", "nM", 380),
    ("O=S(=O)(Nc1ccc(C2=NCCc3ccc(F)cc32)cc1)c1cccc(C(F)(F)F)c1", "IC50", "nM", 257),
]

[P] COc1cc(C2=NCCc3ccccc32)ccc1NS(=O)(=O)c1ccc(-c2ccon2)s1
[Q] COc1cc(C2=NCCc3ccc(Cl)cc32)ccc1NS(=O)(=O)c1ccc(C)cc1
Q: Hi there! Just curious which has the higher IC50 between P and Q . Please reply using the label of the selected record.
Result: P
(P: 295 nM, Q: 123 nM)
